Organism: Rattus norvegicus
assay_notes: Oral estrogenic potency (E) relative to ethynylestradiol (EE) in rats
Format: functional
quantity_measured: Potency (%)
Write the value in % as a bare number.

Sample records with Potency:
molecule	quantity_measured	observed_value
C#C[C@]1(O)CC[C@H]2[C@@H]3[C@H](O)Cc4cc(O)ccc4[C@H]3CC[C@@]21C	Potency	0.1
CC[Si](C#C[C@]1(O)CC[C@H]2[C@@H]3[C@H](O)Cc4cc(O)ccc4[C@H]3CC[C@@]21C)(CC)CC	Potency	0.3
CC[Si](C#C[C@]1(O)CCC2C3C=Cc4cc(O)ccc4C3CCC21C)(CC)CC (some centres undefined)	Potency	2
CC[Si](C#C[C@]1(O)CCCC2C3CCc4cc(O)ccc4C3CCC21C)(CC)CC (some centres undefined)	Potency	0.1
C#C[C@]1(O)CC[C@H]2[C@@H]3C[C@H](O)c4cc(O)ccc4[C@H]3CC[C@@]21C	Potency	16
CC[Si](C#C[C@]1(O)CC[C@H]2[C@@H]3CCc4cc(OC)ccc4[C@H]3CC[C@@]21C)(CC)CC	Potency	1.8

Return Potency (reported value) for this molecule: CC[Si](C#C[C@]1(O)CC(OC)[C@H]2[C@@H]3CCc4cc(OC)ccc4[C@H]3CC[C@@]21C)(CC)CC (some centres undefined) 3

Return Potency (reported value) for this molecule: CC[Si](C#C[C@]1(O)CC[C@H]2[C@@H]3CCc4cc(O)c(C)cc4[C@H]3CC[C@@]21C)(CC)CC 2.2

Return Potency (reported value) for this molecule: C#C[C@]1(O)CC[C@H]2[C@@H]3CCc4cc(OC)ccc4[C@H]3CC[C@@]21C 0.3

Return Potency (reported value) for this molecule: C=CCc1c(O)ccc2c1CC[C@@H]1[C@@H]2CC[C@@]2(C)[C@H]1CC[C@@]2(O)C#C[Si](CC)(CC)CC 0

Return Potency (reported value) for this molecule: CC[Si](C#C[C@]1(O)CC[C@H]2[C@@H]3C[C@@H](C)c4cc(O)ccc4[C@H]3CC[C@@]21C)(CC)CC 0.2

Return Potency (reported value) for this molecule: CC[Si](C#C[C@]1(O)CC[C@H]2[C@@H]3CCc4ccccc4[C@H]3CC[C@@]21C)(CC)CC 13

Return Potency (reported value) for this molecule: CC[Si](C#C[C@]1(O)CCC2=C3C=Cc4cc(O)ccc4C3CCC21C)(CC)CC (some centres undefined) 1

Return Potency (reported value) for this molecule: C#C[C@]1(O)CC[C@H]2[C@@H]3CCc4cc(O)c(C)cc4[C@H]3CC[C@@]21C 5.5

Return Potency (reported value) for this molecule: C#C[C@]1(O)C(C)C[C@H]2[C@@H]3CCc4cc(O)ccc4[C@H]3CC[C@@]21C (some centres undefined) 0.5

Return Potency (reported value) for this molecule: CC[Si](C#C[C@]1(O)CC[C@H]2[C@@H]3CCc4cc(O)ccc4[C@H]3[C@@H](O)C[C@@]21C)(CC)CC 14.4

Return Potency (reported value) for this molecule: C#C[C@]1(O)CCC2C3C=Cc4cc(O)ccc4C3CCC21C (some centres undefined) 2

Return Potency (reported value) for this molecule: CCCN(CCC)Cc1cc2c(cc1O)CC[C@@H]1[C@@H]2CC[C@@]2(C)[C@H]1CC[C@@]2(O)C#C[Si](CC)(CC)CC 0.3

Return Potency (reported value) for this molecule: CC[Si](C#C[C@]1(O)C(C)C[C@H]2[C@@H]3CCc4cc(O)ccc4[C@H]3CC[C@@]21C)(CC)CC (some centres undefined) 0.2

From: ChEMBL document CHEMBL1124055
